Source listed as patent US20220073471A1.

# ASSAYED_SYSTEM: Nav1.8 ion channel stably expressed on HEK293 cells (Homo sapiens)
# Sequence (Q9Y5Y9 whole entry): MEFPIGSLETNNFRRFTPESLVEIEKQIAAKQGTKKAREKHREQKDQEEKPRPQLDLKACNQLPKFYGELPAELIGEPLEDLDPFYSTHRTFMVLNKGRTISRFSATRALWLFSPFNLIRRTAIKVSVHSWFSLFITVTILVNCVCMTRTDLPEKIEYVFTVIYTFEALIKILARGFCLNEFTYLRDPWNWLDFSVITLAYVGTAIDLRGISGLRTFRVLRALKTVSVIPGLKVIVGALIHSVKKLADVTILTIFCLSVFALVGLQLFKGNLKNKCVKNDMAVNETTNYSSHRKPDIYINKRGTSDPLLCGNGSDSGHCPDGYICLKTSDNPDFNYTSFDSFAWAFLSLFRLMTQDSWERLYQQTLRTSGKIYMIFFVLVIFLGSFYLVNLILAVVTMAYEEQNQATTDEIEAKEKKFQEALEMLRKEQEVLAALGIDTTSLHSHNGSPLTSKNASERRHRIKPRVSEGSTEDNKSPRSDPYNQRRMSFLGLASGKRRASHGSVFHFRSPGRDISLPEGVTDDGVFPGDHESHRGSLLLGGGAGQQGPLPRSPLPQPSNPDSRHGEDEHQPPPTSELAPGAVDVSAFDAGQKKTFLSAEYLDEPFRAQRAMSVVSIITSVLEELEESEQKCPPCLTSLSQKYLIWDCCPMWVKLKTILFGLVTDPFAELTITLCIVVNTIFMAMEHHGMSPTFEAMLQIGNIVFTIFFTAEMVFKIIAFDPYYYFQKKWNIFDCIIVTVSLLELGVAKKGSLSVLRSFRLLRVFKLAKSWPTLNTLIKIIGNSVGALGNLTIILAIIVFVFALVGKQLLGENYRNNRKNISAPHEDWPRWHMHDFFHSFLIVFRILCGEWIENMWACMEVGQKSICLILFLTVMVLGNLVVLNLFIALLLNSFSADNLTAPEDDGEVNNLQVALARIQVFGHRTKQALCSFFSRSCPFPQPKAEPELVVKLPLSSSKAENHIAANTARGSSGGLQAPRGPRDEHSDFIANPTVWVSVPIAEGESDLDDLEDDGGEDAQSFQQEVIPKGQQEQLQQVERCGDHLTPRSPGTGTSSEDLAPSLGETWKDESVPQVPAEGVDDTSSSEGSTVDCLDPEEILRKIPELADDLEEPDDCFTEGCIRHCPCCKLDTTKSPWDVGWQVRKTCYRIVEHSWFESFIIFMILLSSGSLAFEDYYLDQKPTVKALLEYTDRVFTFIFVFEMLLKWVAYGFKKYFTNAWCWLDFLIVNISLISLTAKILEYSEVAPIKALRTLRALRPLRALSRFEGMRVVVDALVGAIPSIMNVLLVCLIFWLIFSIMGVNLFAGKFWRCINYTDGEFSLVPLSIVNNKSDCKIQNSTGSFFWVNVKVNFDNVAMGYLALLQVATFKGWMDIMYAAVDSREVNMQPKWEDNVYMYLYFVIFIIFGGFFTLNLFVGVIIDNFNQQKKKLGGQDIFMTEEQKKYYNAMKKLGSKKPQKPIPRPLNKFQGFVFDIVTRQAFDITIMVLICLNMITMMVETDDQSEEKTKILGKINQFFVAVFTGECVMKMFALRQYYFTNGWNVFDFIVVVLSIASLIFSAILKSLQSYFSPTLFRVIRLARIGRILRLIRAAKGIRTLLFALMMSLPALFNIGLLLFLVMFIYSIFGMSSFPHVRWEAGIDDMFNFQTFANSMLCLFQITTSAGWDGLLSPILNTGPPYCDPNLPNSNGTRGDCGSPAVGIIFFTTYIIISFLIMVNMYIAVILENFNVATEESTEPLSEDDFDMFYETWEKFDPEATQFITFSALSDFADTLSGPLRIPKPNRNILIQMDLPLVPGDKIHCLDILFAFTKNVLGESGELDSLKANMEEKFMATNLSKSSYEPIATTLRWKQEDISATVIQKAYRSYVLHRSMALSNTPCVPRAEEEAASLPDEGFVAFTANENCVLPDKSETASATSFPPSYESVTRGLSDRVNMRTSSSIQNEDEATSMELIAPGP
# ASSAY_NOTES: Inhibitory activity on Nav1.8, manual patch clamp
# EXPERIMENTAL_SETUP: resting, clamped at -80 mV, 1 μM TTX, read-out: IC50 on inhibiting the Nav1.8 channel activity
# Experimental: The purpose of the experiment is to investigate the effect of the compounds on Nav1.8 ion channel in an in vitro experiment, wherein the Nav1.8 ion channel is stably expressed on HEK293 cells. […] The cell was clamped at −80 mV. […] The maximum current caused by the square wave was measured. […] After the response became stable, the blocking intensity was calculated. […]
Recorded measurements of IC50, one per entry
Remember to quote the unit after the number.

> print(dat)
                           structure.string  observed
1  Cc1cc(F)ccc1Oc1ccc(C(F)(F)F)cc1C(=O)Nc1cn[nH]c(=O)c1   30.8 nM
2  O=C(Nc1cn[nH]c(=O)c1)c1cc(Cl)c(C(F)(F)F)cc1Oc1ccc(OC(F)(F)F)cc1F    2.5 nM
3  O=C(Nc1cn[nH]c(=O)c1)c1cc(Cl)c(C(F)(F)F)cc1Oc1ccc(F)cc1OC1CCC1   1.86 nM

// moving on: another record for IC50
O=C(Nc1cn[nH]c(=O)c1)c1cc(Cl)c(Cl)cc1Oc1ccc(F)cc1 yielded IC50 of 14.1 nM

* * *

# ASSAY_NOTES: Pharmacokinetics assay in rats after intragastrical administration
# Format: in vivo
# EXPERIMENTAL_SETUP: both sexes, Sprague-Dawley (SD), rat, plasma, po, 2 mg/kg, read-out: Clearance CL/F
PARAMETER: CL/F (mL/min/kg)
Expressed in mL/min/kg, but write only the number.

// recorded CL/F for [2H]C([2H])([2H])Oc1cc(F)ccc1Oc1cc(C(F)(F)F)c(Cl)cc1C(=O)Nc1cn[nH]c(=O)c1 : 7.93

Given item O=C(Nc1cn[nH]c(=O)c1)c1cc(Cl)c(C(F)(F)F)cc1Oc1ccc(F)cc1OC(F)(F)F , the value recorded as its CL/F is 1.46

// CL/F value for Cc1cc(F)ccc1Oc1cc(C(F)(F)F)c(Br)cc1C(=O)Nc1cn[nH]c(=O)c1 : 6.4

* * *

# ASSAYED_SYSTEM: Nav1.8 ion channel stably expressed on HEK293 cells (Homo sapiens)
# ASSAY_NOTES: Inhibitory activity on Nav1.8, manual patch clamp
# EXPERIMENTAL_SETUP: resting, clamped at -80 mV, 1 μM TTX, read-out: IC50 on inhibiting the Nav1.8 channel activity
// values below are reported IC50
Could you give me the number in nM? Just the number is fine.

Some entries whose results are on file:
> print(dat)
                                   molecule                            assayed.system  observed
1  Cc1cc(F)ccc1Oc1cc(C(F)(F)F)c(Br)cc1C(=O)Nc1cn[nH]c(=O)c1 [Example 33]  Nav1.8 ion channel stably expressed on HEK293 cells (Homo sapiens)      0.86
2  COc1cc(F)ccc1Oc1ccc(C(F)(F)F)cc1C(=O)Nc1cn[nH]c(=O)c1 [Example 16]  Nav1.8 ion channel stably expressed on HEK293 cells (Homo sapiens)      17.9
3  O=C(Nc1cn[nH]c(=O)c1)c1cc(Cl)c(C(F)(F)F)cc1Oc1ccc(F)cc1Cl [Example 45]  Nav1.8 ion channel stably expressed on HEK293 cells (Homo sapiens)      5.08
4  Cc1cc(F)ccc1Oc1cc(C(F)(F)F)c(C)cc1C(=O)Nc1cn[nH]c(=O)c1 [Example 34]  Nav1.8 ion channel stably expressed on HEK293 cells (Homo sapiens)      11.5

O=C(Nc1cn[nH]c(=O)c1)c1cc(Cl)c(C(F)(F)F)cc1Oc1ccc(F)cc1OC(F)(F)F [Example 15] on Nav1.8 ion channel stably expressed on HEK293 cells (Homo sapiens) gives IC50 = 4.7
